- Test system: mannose isomerase
- test.summary: mannose isomerase activity of the enzyme of the invention (optimum conditions, substrates, inhibitors)
- Type: biochemical, Pseudomonas sp. AM-9582
- condition.notes: 5×10^-3 M of inhibitor
measured.endpoint: Inhibition of the enzyme

Below, each entry is followed by its recorded Inhibition of the enzyme result.
>  <compound>
O=[N+]([O-])[O-].[Ag+]

>  <observed>
strongly inhibited

$$$$
>  <compound>
O=S(=O)([O-])[O-].[Fe+2]

>  <observed>
strongly inhibited

$$$$
>  <compound>
O=C(O)c1cc[c]([Hg][Cl])cc1 [p-chloromercury benzoate]

>  <observed>
strongly inhibited

$$$$
>  <compound>
[Cl][Hg][Cl]

>  <observed>
strongly inhibited

$$$$

What measured Inhibition of the enzyme is associated with [Cl][Al]([Cl])[Cl] on mannose isomerase? strongly inhibited
